Assay: Cytotoxicity against african green monkey Vero cells
Type: cell-based
Details: chlorocebus sabaeus
observationType: CC50 (µM)
Please reply with the bare figure in µM and do not write the unit itself.

>  <substanceSmiles>
O=[N+]([O-])c1ccc(-c2nc3cc(C(F)(F)F)ccc3[nH]2)cc1

>  <CC50 [µM]>
45

$$$$
>  <substanceSmiles>
COc1ccc(-c2nc3cc(C(F)(F)F)ccc3[nH]2)c(OC)c1OC

>  <CC50 [µM]>
70

$$$$
>  <substanceSmiles>
COc1ccc(-c2nc3cc(C(F)(F)F)ccc3[nH]2)c(N)c1

>  <CC50 [µM]>
50

$$$$
>  <substanceSmiles>
Fc1ccc(-c2nc3cc(C(F)(F)F)ccc3[nH]2)cc1

>  <CC50 [µM]>
60

$$$$

q: What does the data say about its CC50? Entry: `Cn1c(-c2ccc(NC(=O)CN3CCN(c4ccccc4)CC3)cc2)nc2cc(C(F)(F)F)ccc21`
a: 30

q: Also check `Oc1ccc(-c2nc3cc(Cl)c(Cl)cc3[nH]2)cc1`
a: 18

q: Now consider `COc1ccc(-c2nc3cc(C(F)(F)F)ccc3[nH]2)c([N+](=O)[O-])c1` .
a: 20

q: Lookup `COc1ccc(-c2nc3cc(Cl)c(Cl)cc3[nH]2)cc1`
a: 30

q: Moving on to `O=C(CN1CCCCC1)Nc1ccc(-c2nc3cc(C(F)(F)F)ccc3[nH]2)cc1`
a: 31
